Reported PBMC binding (%) values for the following binders.
Target: TCR Vβ17 on T cells of PBMCs
Sequence (A0A075B6N1 22-114): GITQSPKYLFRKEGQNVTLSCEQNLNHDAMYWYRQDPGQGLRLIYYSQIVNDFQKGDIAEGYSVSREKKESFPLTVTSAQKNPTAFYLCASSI
Test: flow cytometry on PBMCs, percent of cells stained
Quick note: give the figure in %, leave out the unit.

Examples with their reported PBMC binding (%) follow.
* 21G11D5 (antibody, V domains shown) VH: EVQLQESGPDLKKPGETVKISCKASGYTFTTYGMNWVKQAPGKGLKWMGYLNTYSGVSTYADDFKGRFAFSLETSANTAYLQINNLRNDDTATYFCARWGNYGAMDYWGQGTSVTVSS VL: DIVMTQSPLSLPVSLGDQASISCRSSQSIVRSNGFTYLEWYLQKPGQSPELLIYKVSNRFSGVPDRFSGSGSGTDFTLKISRVEAEDLGVYYCFQSSHVPRTFGGGTKLEIK | 3.06
* 28D2E8 (antibody, IgG1, V domains shown) VH: EVQLQESGPGLVKPSQSLSLTCSVTGYFISSGYYWKWIRQFPGNKLEWMGYISYDGSNNYNPSLKNRISITRDTSKNQFFLKLNSVTAEDTATYYCARGGGYVPVWGTGTTVTVSS VL: DIKMTQSPLSLPVSLGDQASISCRSSQSIVRSNGNTYLEWYLQKPGQSPKLLIYKVSNRFSGVPDRFSGSGSGTDFTLKISRVEAEDLGVYYCFQSSHVPRTFGGGTKLEIK | 3.3
* 28D2E6 (antibody, IgG1, V domains shown) VH: EVQLQESGPGLVKPSQSLSLTCSVTGYFISSGYYWKWIRQFPGNKLEWMGYISYDGSNNYNPSLKNRISITRDTSKNQFFLKLNSVTAEDTATYYCARGGGYVPVWGTGTTVTVSS VL: DIQMTQSPLSLPVSLGDQASISCRSSQSIVRSNGNTYLEWYLQKPGQSPKLLIYKVSNRFSGVPDRFSGSGSGTDFTLKISRVEAEDLGVYYCFQSSHVPRTFGGGTKLEIK | 3.27
* 23A9B10 (antibody, V domains shown) VH: EVQLQESGPGLVKPSQSLSLTCSVTGYSITSGYYWNWIRQFLGNKLEWMGYITYDGSNNYNPSLKDRISITRDTSKNQFFLNLNSVTTDDTATYYCARGGGYVPVWGTGTTVTVSS VL: IQMTQSPAFLSVSPGERVSFSCRASQNIGTSIHWYQQRTNGSPRLLIKYASESISGIPSRFSGSGSGTDFTLSINSVESEDFADYYCHQSHNWPTTFGAGTKLELK | 2.74
* 28B2A4 (antibody, IgG2a, V domains shown) VH: EVQLQESGPELVKPGASVKMSCKASGYTFTDDNMHWVKQSHGKSLEWIGYINPNNNHTNYNQKFKGKATLTVNKSSSTAYMELRSLTSEDSAVYFCARSTVVPFYAMDYWGQGTSVTVSS VL: DIQMTQSPASLSMAIGEKVTIRCITITDIDDDMNWYQQKPGEPPKLLFSEGNTLRPGVPSRFSSSGYGSDFAFTIENMLSEDVADYYCLQSDNLPLTFGGGTKLEIK | 2.97

# input What does the record list as PBMC binding (%) for 28B2A2 (antibody, IgG2a, V domains shown) VH: EVQLQESGPELVKPGASVKMSCKASGYTFTDDNMHWVKQSHGKSLEWIGYINPNNNHTNYNQKFKGKATLTVNKSSSTAYMELRSLTSEDSAVYFCARSTVVPFYAMDYWGQGTSVTVSS VL: DIVMTQSPASLSMAIGEKVTIRCITITDIDDDMNWYQQKPGEPPKLLFSEGNTLRPGVPSRFSSSGYGSDFAFTIENMLSEDVADYYCLQSDNLPLTFGAGTKLELK ?
# output 3.13

# input What does the record list as PBMC binding (%) for 28B2F5 (antibody, IgG2a, V domains shown) VH: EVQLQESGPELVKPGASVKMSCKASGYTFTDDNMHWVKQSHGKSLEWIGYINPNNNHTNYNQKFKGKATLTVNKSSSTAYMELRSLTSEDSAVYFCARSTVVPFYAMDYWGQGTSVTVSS VL: DIKMTQSPASLSMAIGEKVTIRCITITDIDDDMNWYQQKPGEPPKLLFSEGNTLRPGVPSRFSSSGYGSDFAFTIENMLSEDVADYYCLQSDNLPLTFGAGTKLELK ?
# output 3.2
